Target System: recombinant human HDAC8 (Homo sapiens)
Construct: made in house; host or cells: insect cells
Sequence (Q9BY41 whole entry): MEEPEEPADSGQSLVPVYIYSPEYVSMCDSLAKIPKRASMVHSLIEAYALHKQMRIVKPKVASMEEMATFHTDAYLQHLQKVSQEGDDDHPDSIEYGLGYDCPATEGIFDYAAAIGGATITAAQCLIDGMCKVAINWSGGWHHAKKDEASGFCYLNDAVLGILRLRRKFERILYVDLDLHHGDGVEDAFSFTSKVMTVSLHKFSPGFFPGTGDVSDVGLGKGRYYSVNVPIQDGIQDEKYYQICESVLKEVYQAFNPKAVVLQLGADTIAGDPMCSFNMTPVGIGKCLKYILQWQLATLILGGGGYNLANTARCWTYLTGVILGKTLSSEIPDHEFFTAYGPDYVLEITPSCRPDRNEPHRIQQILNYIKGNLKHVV
Assay Remarks: HDAC8 inhibition: recombinant HDAC8 fluorometric assay
Format: biochemical
Measurement Parameters: recombinant human HDAC8, substrate Ac-Arg-His-Lys-Lys(ε-acetyl)-AMC; read-out: HDAC8 IC50
Note that class boundaries on IC50 are group 1 = under 0.6 µM, group 2 = from 0.6 µM up to 1 µM, group 3 = 1 µM and over

Past entries and their recorded results:
Compound	Group Label
CC(C)(c1ccc(-c2ccccc2)cc1)N1CCC(Nc2ccc(C(=O)NO)cc2)C1=O (stereo not drawn)	group 2
CC1(Nc2ccc(C(=O)NO)cc2)C(=O)N(Cc2ccccc2)c2ccccc21 (stereo not drawn)	group 3
Cc1cc(F)cc(C)c1N1CCC(Nc2ccc(C(=O)NO)cc2)C1=O (stereo not drawn)	group 3
O=C(NO)c1ccc(NC2CCN(C3CCCCC3)C2=O)cc1 (stereo not drawn)	group 2
O=C(NO)c1ccc(NC2CCN(c3cccc4cccnc34)C2=O)cc1 (stereo not drawn)	group 1

Q: Given CC1(Nc2ccc(C(=O)NO)cc2)C(=O)N(c2ccccc2)c2ccccc21 (stereo not drawn) , name the class its IC50 places it in.
Ans: group 2

Q: Given CC(C)(c1ccc2ccccc2c1)N1CCC(Nc2ccc(C(=O)NO)cc2)C1=O (stereo not drawn) , name the class its IC50 places it in.
Ans: group 1

Q: Given CCC1(Nc2ccc(C(=O)NO)cc2)CCN(C(C)(C)c2ccccc2)C1=O (stereo not drawn) , name the class its IC50 places it in.
Ans: group 1
